experiment: PET hydrolysis, aromatic products released after 48 h (umol product/mg enzyme); higher = more PET depolymerization activity; conditions: substrate: cryPow; 40 °C; pH 7.5
Quantity Name: PET hydrolysis
Field format: numeric only.

Sequence String | PET hydrolysis
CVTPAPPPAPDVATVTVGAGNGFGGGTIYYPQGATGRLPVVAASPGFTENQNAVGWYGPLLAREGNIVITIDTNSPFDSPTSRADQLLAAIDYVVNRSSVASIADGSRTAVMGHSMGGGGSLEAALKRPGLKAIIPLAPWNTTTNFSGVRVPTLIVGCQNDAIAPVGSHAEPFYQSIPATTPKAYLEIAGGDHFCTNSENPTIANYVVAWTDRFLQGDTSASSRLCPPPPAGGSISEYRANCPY [ESM050] | 134

Requested field: PET hydrolysis. Item: ADNPYQRGPDPTRTSVTAVNGPFANTSVSVPTGHGFNGGRIYYPTDTSQGTFGAIAISPGYTALFSAELAWMGPWLASHGFVVIGIETNSRNDFDTARGTQLLAALDYLTQQSPVRDRVDPSRLAVSGHSMGGGGALSAAMRRASLKAVVGITPYSPSSNLANDRVPTMIISGQADTVVTPSYALGLYNSIPATTESVYLEVAGGDHGFMVGRSNPVLVRTMLPFLKMFIDNDTRYSQFLCPLLDNSGVVTYRSTCPLLPTDPTTPPTGTPTPTPTTPAPTTPPPTTPPGSASEIRGTQSNRCIDVPNASRNNGTRVQLYDCNRQTNQAWTYTANKQLQVYGNMC [ESM106] 19

====

test: purified protein yield per well (BCA); higher = higher soluble expression
Quantity Name: purified protein yield per well (µg)
The reply should contain only the number, in µg.

Requested field: purified protein yield per well. Item: ADNPYQRGPDPTRTSVATERGPFANTSVSVPSGYGFNGGRIYYPTDTSQGTFGAIAISPGYTALFSAELAWMGPWLASHGFVVIGIETNSRNDFDTARGTQLLAALDYLTQQSPVRDRIDPNRLAVSGHSMGGGGALSAAMRRSSLKAVVGIAPYSPSSNLANDRVPTMIFSGQADTVVTPSYAMGLYNSIPAGTKSAYLEVAGGDHGFMVGRSNPVLIRTMLPFLKIFIDNDARYSQFLCPLLDNSGVVTYRSTCPFLPTTPTTPPPTG [ESM065] 250

====

experiment: PET hydrolysis, aromatic products released after 48 h (umol product/mg enzyme); higher = more PET depolymerization activity; details: substrate: cryPow; 40 °C; pH 5.5
Known PET hydrolysis of a selection of sequences
Field format: numeric only.

Sequence String | PET hydrolysis
VQIGPAPTKASLEASRGPFTVATTRLSANGHGGGTIYYPTNAGAKVGVIAIVPGYLSYQSSIEWWGPRLASHGFAVVTIDTLTIYDQPSSRSSQQLRALDQVVALGSKSTSPLYNKVDGSRTGVMGWSMGGGGSLISAQNRPSIKAAAPQAPWNTTSNFSSLTVPTLIFACQADVVAPILSHAVPFYNSMSRNPKQYLERTAGDHFCFNNANPTVGLKGVAWMKRFIDGDTRYTSFACSNPNALGFSSFRTERCS [ESM053] | 6
ATPARPASVAAAPAAVQRAADNPYQRGPAPTEASITAEKGPFAVETIPVPAGSGTGFNKGTVYAPTDTSEGTFGAIVVSPGFVSPEAWISWYGPRLASQGFVVMTLETNSLVDVPASRGDQLLAALDWLTGKSSVKNRIDASRTAVMGHSMGGGGTLEAANKRPSLKADIPLAPWDTNYNFPNIKTPTLIMGADNDLIAPASSMAESYYNNITTAPEKAYLLLKNAGHMTFVSPNTTIAKYSIAWMKRFVDNDTRYDQFLCPAPKPDANIAKYLDTCPNG [DP016] | 4

Lab note: next sequence to report on.
Requested field: PET hydrolysis. Item: AANPYQRGPAPTAASVAAVTGPFATASVSVPRGNGFGGGVIYYPTDTSQGTFGGLAISPGLNGTWPGIAWLGSRLASQGFIVFGIETNNLNDSPTSRGTQLLAALDYLAQRSSVRSRLDPGRLAVAGHSMGGGGALDAALRRPSLKAAIGNAPYLPSNTLAGNRVPTLIYAMQNDTLVPPSRLTSLYNTIPATTERAYLEITGAGHNYIGQPSTTLARTMIPWLKIFIDNDTRFSQFLCPLADQSGIRQYRSSCPLVPATTRALTAAAG [DP043] 12
